test system: ATS95; experiment: qHTS profiling for inhibitors of Plasmodium falciparum proliferation (AID 504749); note: nearly all actives have a fitted effect of over 60% in size; settings: P. falciparum in erythrocytes, SYBR Green DNA, 72 h; series mostly up to 28.7 µM
Records with an inconclusive call do not appear. The source made the active and inactive calls. Calls come from the whole dose curve; as a rule, active = well fitted inhibition curve with a large enough effect; inconclusive = small, poorly fitted or top-dose-only effect; inactive = flat fitted curve, though single readings scatter.
Outcomes: label 1 (active), label 0 (inactive)

COMPOUND_STRING | CLASS_NAME
C[C@H](CS)C(=O)N1CCC[C@H]1C(=O)O | label 0
CCOC(=O)c1cnc2c(cnn2CC)c1NN=C(C)C | label 0
CCCCOCCOCCOCc1cc2c(cc1CCC)OCO2 | label 0
NC(=O)c1cn(Cc2c(F)cccc2F)nn1 | label 0
CCN(CC)CC(=O)Nc1c(C)cccc1C | label 0
CCCCNC(=O)NS(=O)(=O)c1ccc(C)cc1 | label 0
CN=C(NC#N)NCCSCc1nc[nH]c1C | label 0
NC(=O)c1ncn([C@@H]2O[C@H](CO)[C@@H](O)[C@H]2O)c1O | label 0
C[N+](C)(C)CCOC(=O)CCC(=O)OCC[N+](C)(C)C | label 0
CC[N+](C)(C)c1cccc(O)c1 | label 0
CCNC(=O)N1CCN(CCCC(c2ccc(F)cc2)c2ccc(F)cc2)CC1 | label 1
NC(=O)N1c2ccccc2C=Cc2ccccc21 | label 0
Cc1nc2c([nH]1)c(=O)n(C)c(=O)n2Cc1ccco1 | label 0
CN(C)CCOC(=O)COc1ccc(Cl)cc1 | label 0
C#CCN(C)CCCOc1ccc(Cl)cc1Cl | label 0
CC(=O)[C@]1(O)Cc2c(O)c3c(c(O)c2[C@@H](O[C@H]2C[C@H](N)[C@H](O)[C@H](C)O2)C1)C(=O)c1ccccc1C3=O | label 1
CN1CCN(C2=Nc3ccccc3Oc3ccc(Cl)cc32)CC1 | label 0

###

assay: qHTS for differential inhibitors of proliferation of Plasmodium falciparum line GB4 (AID 1816); details: Plasmodium falciparum GB4 proliferation inhibition; series mostly up to 28.7 µM;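 note: parasite growth measured after 72 h incubation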
Inconclusive results are not listed. Calls of active or inactive are those of the source. Calls follow the shape of the dose curve; as a rule, active = well fitted curve in the direction sought with a large enough effect; inconclusive = small, poorly fitted or top-dose-only effect, or another doubt; inactive = no such curve, though single readings can be large or run the other way.
Classes used: active, inactive

COMPOUND_STRING | CLASS_NAME
CCc1cccc(N(C)C(N)=Nc2cccc3ccccc23)c1 | active
COC(=O)[C@H]1[C@H]2C[C@@H]3c4[nH]c5cc(OC)ccc5c4CCN3C[C@H]2C[C@@H](OC(=O)c2cc(OC)c(OC)c(OC)c2)[C@@H]1OC | active
OCCN1CCN(CC/C=C2/c3ccccc3Sc3ccc(C(F)(F)F)cc32)CC1 | active
COc1ccc(CN(CCN(C)C)c2ccccn2)cc1 | active
CCN(CC)CCNC(=O)c1cc(S(C)(=O)=O)ccc1OC | inactive
CCN(CC)CCNC(=O)c1ccc(NC(C)=O)cc1 | inactive

###

assay: AP1 Signaling Pathway (AID 357); details: ME-180 (cervical carcinoma) AP-1-bla reporter, EGF-induced, beta-lactamase ratio, 5 h; at 38 µM (top of the series);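 note: ME-180 reporter cells stimulated with EGF at its EC50 level; % is set by controls: 0 for no effect and ±100 for the full control effect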
Results filed as inconclusive are left out. The source made the active and inactive calls. Calls follow the shape of the dose curve; as a rule, active = well fitted curve in either direction with a large enough effect (not every such curve was filed as active); inconclusive = small, poorly fitted or top-dose-only effect, or another doubt; inactive = flat fitted curve, though single readings scatter.
Entries annotated with measured activity change, negative = inhibition
OUTCOME_MEASURE: activity change, negative = inhibition

COMPOUND_STRING | OUTCOME_MEASURE | REPORTED_MEASUREMENT
CCCN(CCC)CCc1cccc2c1CC(=O)N2 | activity change, negative = inhibition | 3.44% (inactive)
CCCCNc1ccc(C(=O)OCCN(C)C)cc1 | activity change, negative = inhibition | 22.1% (inactive)
CCCOc1ccccc1-c1nc2n[nH]nc2c(=O)[nH]1 | activity change, negative = inhibition | -7.91% (inactive)

###

experiment: qHTS of pediatric cancer cell lines to identify multiple opportunities for drug repurposing: Primary screen for SK-N-SH cells (AID 1347098); details: SK-N-SH viability, CellTiter-Glo luminescence, 48 h; series mostly up to 57 µM; note: nearly all actives have a fitted effect of over 65% in size
Records with an inconclusive call do not appear. Active and inactive are the calls of the source. Calls follow the shape of the dose curve; as a rule, active = well fitted cell-killing curve with a large enough effect; inconclusive = small, poorly fitted or top-dose-only effect; inactive = no such curve, though single readings can be large or run the other way.
Possible outcomes: 1 = active, 0 = inactive

COMPOUND | CLASS_NAME
CC[N+](C)(C)c1cccc(O)c1 | 0
O=C(O)CN(CCN(CC(=O)O)CC(=O)O)CCN(CC(=O)O)CC(=O)O | 0
Cc1nc2ccccn2c(=O)c1CCN1CCC(C(=O)c2ccc(F)cc2)CC1 | 0
CC(=O)OC(C)C[N+](C)(C)C (stereo unspecified) | 0
OCCN1CCN(CC/C=C2/c3ccccc3Sc3ccc(C(F)(F)F)cc32)CC1 | 1
CN1C(=O)CC[C@H]1c1cccnc1 | 0
CN(C)CCN(Cc1cccs1)c1ccccn1 | 0
Cc1cc(C)c(/C=C2\C(=O)Nc3ccccc32)[nH]1 | 0
CCCN(CCC)C(=O)C(CCC(=O)O)NC(=O)c1ccccc1 (stereo unspecified) | 0
CNCCCN1c2ccccc2CCc2ccccc21 | 1
C[n+]1cc2c3c(ccc2c2ccc4cc5c(cc4c21)OCO5)OCO3 | 1
CN(C)CC[C@@H](c1ccc(Br)cc1)c1ccccn1 | 0
CCCN1C[C@H](CSC)C[C@@H]2c3cccc4[nH]cc(c34)C[C@H]21 | 0
Cc1nnc(SCC2=C(C(=O)O)N3C(=O)[C@@H](NC(=O)Cn4cnnn4)[C@H]3SC2)s1 | 0
COc1cc(Cc2cnc(N)nc2N)cc(OC)c1OC | 0
CNC1(C)C2CCC(C2)C1(C)C (stereo unspecified) | 0

###

molecular target: Pyruvate kinase (Leishmania mexicana) (UniProt Q27686); experiment: qHTS Validation Assay for Inhibitors of Leishmania Mexicana Pyruvate Kinase (AID 945); settings: purified L. mexicana pyruvate kinase, enzyme activity, E451W mutant enzyme; series mostly up to 57.5 µM
Calls of active or inactive are those of the source. Calls come from the whole dose curve; as a rule, active = well fitted inhibition curve with a large enough effect; inconclusive = small, poorly fitted or top-dose-only effect; inactive = no such curve, though single readings can be large or run the other way.
Labels: active, inactive

MOLECULE | CLASS_NAME
CSc1ccc(C(=O)c2[nH]c(=O)[nH]c2C)cc1 | inactive
COC(=O)[C@@H](N)Cc1ccc(O)c(O)c1 | inactive
CC(C)NNC(=O)c1ccncc1 | inactive
CN1CCN(CC(=O)N2c3ccccc3C(=O)Nc3cccnc32)CC1 | inactive
CCc1c(C)[nH]c2c1C(=O)C(CN1CCOCC1)CC2 (centres undefined) | inactive
CCOC(=O)c1cnc2c(cnn2CC)c1NN=C(C)C | inactive
CCc1cccc(N(C)C(N)=Nc2cccc3ccccc23)c1 | inactive
CN(C(=O)CCCOc1ccc2[nH]c(=O)ccc2c1)C1CCCCC1 | inactive
CN1CCN(C2=Nc3ccccc3Oc3ccc(Cl)cc32)CC1 | inactive
CN(C)CCOC(=O)COc1ccc(Cl)cc1 | inactive
CCCCNc1c(C(=O)OCC)c(C)nc2c1cnn2CC | inactive
Cc1ccc(S(=O)(=O)NC(=O)NN2CCCCCC2)cc1 | inactive
C[C@]12C=CC(=O)C=C1CC[C@H]1[C@@H]3C[C@@H](O)[C@](O)(C(=O)CO)[C@@]3(C)C[C@H](O)[C@@]12F | inactive
CC1=NS(=O)(=O)c2cc(Cl)ccc2N1 | inactive
C[C@H](CS)C(=O)N1CCC[C@H]1C(=O)O | inactive
Cc1ccc(=O)n(-c2ccccc2)c1 | inactive
C[n+]1cc2c3c(ccc2c2ccc4cc5c(cc4c21)OCO5)OCO3 | active
CCCCNc1ccc(C(=O)OCCN(C)C)cc1 | inactive
O=C(O)CN(CCOCCOCCN(CC(=O)O)CC(=O)O)CC(=O)O | inactive
C[N+](C)(C)CCCCCCCCCC[N+](C)(C)C | inactive
C[C@]12CCC(=O)C=C1CC[C@@H]1[C@@H]2CC[C@@]2(C)[C@H]1CC[C@]2(O)C(=O)CO | inactive
O=C1NCN(c2ccccc2)C12CCN(CCCC(c1ccc(F)cc1)c1ccc(F)cc1)CC2 | inactive
NCCCNCCSP(=O)(O)O | inactive
O=C1CC2(CCCC2)CC(=O)N1CCCCN1CCN(c2ncccn2)CC1 | inactive
Brc1c(NC2=NCCN2)ccc2nccnc12 | inactive
C[N+](C)(C)CCOC(N)=O | inactive
CNCCCN1c2ccccc2CCc2ccccc21 | inactive
CCN(CC)CCNC(=O)c1cc(S(C)(=O)=O)ccc1OC | inactive
CC1=C(C)C(=O)C(CCCCC#CCCCC#CCO)=C(C)C1=O | inactive
CN(C)CCCN1c2ccccc2Sc2ccccc21 | inactive
CCn1cc(C(=O)O)c(=O)c2cc3c(cc21)OCO3 | inactive
Cc1nc2sccn2c(=O)c1CCN1CCC(=C(c2ccc(F)cc2)c2ccc(F)cc2)CC1 | inactive
CC(=O)Nc1nnc(S(N)(=O)=O)s1 | inactive
CN(C)CCN(Cc1cccs1)c1ccccn1 | inactive

###

test: qHTS for Activators of Parkin Expression: LOPAC Validation Assay (NLuc Reporter) (AID 720572;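 for activation: 0% = DMSO and 100% = positive control compound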); settings: Parkin promoter NanoLuc reporter cells, luminescence; series mostly up to 46.1 µM
Records with an inconclusive call do not appear. The source made the active and inactive calls. The call rests on the fitted dose curve; in most records, active means well fitted activation curve with a large enough effect; inconclusive means small, poorly fitted or top-dose-only effect; inactive means flat fitted curve, though single readings scatter.
Outcome codes: YES = active, NO = inactive

COMPOUND | CLASS_NAME
COC(=O)[C@H]1[C@H]2C[C@@H]3c4[nH]c5cc(OC)ccc5c4CCN3C[C@H]2C[C@@H](OC(=O)c2cc(OC)c(OC)c(OC)c2)[C@@H]1OC | NO
NC(Cc1ccc(Cl)cc1)C(=O)O (stereo not drawn) | NO
CN(C)C/C=C(/c1ccc(Br)cc1)c1cccnc1 | NO
CCN(CC)CC(=O)Nc1c(C)cccc1C | NO
CCOC(=O)C1=C(C)NC(C)=C(C(=O)OC)C1c1cccc(Cl)c1Cl (stereo not drawn) | YES
CCn1cc(C(=O)O)c(=O)c2cc3c(cc21)OCO3 | NO
CCCCCN(CCCCC)C(=O)C(CCC(=O)O)NC(=O)c1ccc(Cl)c(Cl)c1 (stereo not drawn) | NO
C[C@]12C=CC(=O)C=C1CC[C@H]1[C@@H]3C[C@@H](O)[C@](O)(C(=O)CO)[C@@]3(C)C[C@H](O)[C@@]12F | NO
NCCCNCCSP(=O)(O)O | NO
CC(N=C(NC#N)Nc1ccncc1)C(C)(C)C (stereo not drawn) | NO
OC(CCN1CCCCC1)(c1ccccc1)C1CCCCC1 (stereo not drawn) | NO
CCc1c(C)[nH]c2c1C(=O)C(CN1CCOCC1)CC2 (stereo not drawn) | NO
FC(F)(F)c1ccccc1-n1ccnc1 | NO
CCn1ccnc1CC1COc2ccccc2O1 (stereo not drawn) | NO
C[n+]1cc2c3c(ccc2c2ccc4cc5c(cc4c21)OCO5)OCO3 | NO
CCN(CC)CCNC(=O)c1cc(S(C)(=O)=O)ccc1OC | NO
Cc1ccc(S(=O)(=O)NC(=O)NN2CCCCCC2)cc1 | NO
NC(N)=N/N=C/c1c(Cl)cccc1Cl | NO
CNCCCN1c2ccccc2CCc2ccccc21 | NO
O=C(O)CCCCCCCC(=O)O | NO
CCN(CC)CCCN(c1ccccc1)C1Cc2ccccc2C1 | NO
CCc1cccc(N(C)C(N)=Nc2cccc3ccccc23)c1 | NO
COc1ccc([C@@H]2Sc3ccccc3N(CCN(C)C)C(=O)[C@@H]2OC(C)=O)cc1 | NO
CNCCC(Oc1ccccc1OC)c1ccccc1 (stereo not drawn) | NO
COc1cc2c(cc1OC)-c1cc(=Nc3c(C)cc(C)cc3C)n(C)c(=O)n1CC2 | NO
CC(C)(Oc1ccc(CCNC(=O)c2ccc(Cl)cc2)cc1)C(=O)O | NO
CCN1CCc2nc(N)oc2CC1 | NO
CN(C(=O)CCCOc1ccc2[nH]c(=O)ccc2c1)C1CCCCC1 | NO
Nc1nc(N)c2nc(-c3ccccc3)c(N)nc2n1 | NO
CN=C(NC#N)NCCSCc1nc[nH]c1C | NO
CN(C)C(=O)Oc1cccc([N+](C)(C)C)c1 | NO
C[N+](C)(C)CCOC(=O)CCC(=O)OCC[N+](C)(C)C | NO
NC(N)=NC(=O)Cc1c(Cl)cccc1Cl | NO
